- Test system: CU-ACC1
- TEST_METHOD_NOTES: AC50 viability; higher = less potent
- STATED_CONDITIONS: 48 h
Mark yes (1) only for AC50 viability values smaller than 8 µM; exact matches and larger values are no (0).

Examples from the recorded data:
Cc1nn(Cc2ccccc2Cl)c(C)c1CN(C)CC(O)COc1ccc(Cl)cc1 (centres undefined) | no (0)
COc1cccc2c1C(=O)c1c(O)c3c(c(O)c1C2=O)C[C@@](O)(C(=O)CO)CC3OC1CC(N2CCOC(OC)C2)C(O)C(C)O1 (some centres undefined) | yes (1)
CN1CCCN(C(=O)c2cccc(-c3ccc(/C=C4/C(=O)Nc5ccc(Cl)cc54)o3)c2)CC1 | no (0)
O=C(/C=C/C#Cc1cccc(N[S+](=O)([O-])c2ccccc2)c1)NO | yes (1)
O=C(Nc1c[nH]nc1-c1nc2cc(CN3CCOCC3)ccc2[nH]1)NC1CC1 | no (0)
COc1cccc2c1CCCC2CCCN1CCN(C2CCCCC2)CC1 (centres undefined) | no (0)

Ask: For O=C(O)c1ccc(O)c2ncccc12 , is the recorded AC50 viability below the cut-off of 8 µM?
Result: no (0)

Ask: Find out if reported AC50 viability for Cc1ccc(NC(=O)c2ccc(CN3CCN(C)CC3)cc2)cc1Nc1nccc(-c2cccnc2)n1 is less than 8 µM
Result: no (0)

Ask: # strict comparison: is reported AC50 viability < 8 µM? input = COc1ccc([S+](=O)([O-])N(CCO)c2ccccc2CN(C)C/C=C/c2ccc(Cl)cc2)cc1
Result: no (0)

Ask: Is AC50 viability strictly under 8 µM for the entry Oc1ccc2ccccc2c1SSc1c(O)ccc2ccccc12 ?
Result: no (0)

Ask: Answer whether the compound N[S+]([O-])(=O)C1=CC=C(NC/2=C/C(=O)C3=CC=CC=C3C2=O)C=C1 has AC50 viability strictly less than 8 µM
Result: yes (1)
